- System: CU-ACC1
- Experiment summary: area under concentration-response curve (viability) (AUC (a.u.)); higher = less active
- Assay conditions: 48 h
Measured property: area under concentration-response curve
Form field (numeric): enter value without unit.

[ask] Please look at this molecule and report its area under concentration-response curve: "OC1=C(Cl)C=C(N\C2=C(\C(=O)NC2=O)C3=C(C=CC=C3)[N+]([O-])=O)C=C1"
[reply] 502

[ask] // Input: "COC1=C(OC)C(=O)C(C/C=C(\C)CC/C=C(\C)CC/C=C(\C)CC/C=C(/C)CC/C=C(\C)CC/C=C(\C)CC/C=C(\C)CC/C=C(\C)CC/C=C(\C)CCC=C(C)C)=C(C)C1=O" . Output its area under concentration-response curve only.
[reply] 502

[ask] Please give the documented area under concentration-response curve of "O=C(N[C@H]1CCC[C@H](CO)C1)C1CCN(c2nc3cc(Cl)c(-c4ccc(Cl)cc4)cc3o2)CC1"
[reply] 484

[ask] Given the molecule "Oc1ccc(-c2ccc(-c3cc(Nc4cccc(CNC5CC5)c4)[nH]n3)cc2)c(O)c1" , write its reported area under concentration-response curve.
[reply] 498

[ask] Hello, please tell me recorded area under concentration-response curve for this one: "COc1cccc([C@@H](C)NCCCc2ccccc2Cl)c1"
[reply] 462

[ask] Return value of area under concentration-response curve for input "C[C@@H]1CN[C@H]2[C@@H](C)[C@@]\3(CC[C@H]\4[C@@H]5C/C=C6/C[C@@H](O)CC[C@]6(C)[C@H]5CC4=C3C)O[C@@H]2C1" , no commentary.
[reply] 463
